protocol_details: Dissociation constant with retinol binding protein was determined
assay_endpoint: pKd
Note on units: pKd is unitless, being -log10 of a concentration expressed in mol/L.

compound	pKd
CC1=C(/C=C/C(C)=C/C=C/C(C)=C/C(=O)Nc2ccc(O)cc2)C(C)(C)CCC1 [FENRETINIDE]	6.77
CC1=C(/C=C/C(C)=C/C=C/C(C)=C/CO)C(C)(C)CCC1	7.15

**Query** Consider the compound CCNC(=O)/C=C(C)/C=C/C=C(C)/C=C/C1=C(C)CCCC1(C)C and give its recorded pKd.
**Result** 7.05

---

protocol_details: Partition coefficient (logP)
Assay type: physicochemical
condition_summary: octanol/water
Each entry below carries its recorded logP.
Output: the number by itself.

Use the examples below as a reference point.
molecule	logP
CC1=C(/C=C/C(C)=C/C=C/C(C)=C/CO)C(C)(C)CCC1 [RETINOL]	6.16
CCNC(=O)/C=C(C)/C=C/C=C(C)/C=C/C1=C(C)CCCC1(C)C	6.31

// below: logP requested for another molecule
**Query** Give the measured logP for C/C=C(C)/C=C/C=C(C)/C=C/C1=C(C)CCCC1(C)C
**Result** 8.15
